Can you tell me phosphorylation enrichment for the items I'm about to list?
molecular target: FGFR1 (UniProt P11362); assay: phosphorylation enrichment, bacterial display (enrichment ratio); higher = better substrate or ligand; peptides without Tyr show the background;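 note: 11-residue human phosphosite peptides and single-mutation variants displayed on the E. coli surface, counted by deep sequencing, each peptide's frequency after selection divided by its frequency in the unselected input library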;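 note: frequency after pTyr selection over input frequency; kinase dosed for 20-30% of maximal phosphorylation in three min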
Sequence (P11362 whole entry, looked up): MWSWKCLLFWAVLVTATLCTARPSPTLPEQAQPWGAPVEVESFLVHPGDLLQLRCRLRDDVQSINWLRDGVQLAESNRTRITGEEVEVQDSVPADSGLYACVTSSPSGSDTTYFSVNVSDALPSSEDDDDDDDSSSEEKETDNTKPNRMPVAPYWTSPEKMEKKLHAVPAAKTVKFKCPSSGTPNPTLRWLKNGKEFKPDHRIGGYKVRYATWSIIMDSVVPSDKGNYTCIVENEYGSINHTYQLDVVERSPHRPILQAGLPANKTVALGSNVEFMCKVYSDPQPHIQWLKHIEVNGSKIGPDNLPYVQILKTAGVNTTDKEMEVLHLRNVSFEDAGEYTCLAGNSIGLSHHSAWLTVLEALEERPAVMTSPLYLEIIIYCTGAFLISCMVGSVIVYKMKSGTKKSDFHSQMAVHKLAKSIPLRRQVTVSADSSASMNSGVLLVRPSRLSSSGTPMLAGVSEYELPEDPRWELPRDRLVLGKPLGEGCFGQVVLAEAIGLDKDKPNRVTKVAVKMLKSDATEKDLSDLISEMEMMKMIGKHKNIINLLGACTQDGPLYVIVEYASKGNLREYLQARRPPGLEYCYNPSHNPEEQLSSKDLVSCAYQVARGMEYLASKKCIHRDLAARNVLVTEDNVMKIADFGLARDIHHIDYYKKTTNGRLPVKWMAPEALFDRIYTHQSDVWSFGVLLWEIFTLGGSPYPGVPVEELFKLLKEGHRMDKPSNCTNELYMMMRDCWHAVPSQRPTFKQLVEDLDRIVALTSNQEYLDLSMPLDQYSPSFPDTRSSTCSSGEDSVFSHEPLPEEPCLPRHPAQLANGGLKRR
# answer = number (no unit)

Ask: Look up and report measured phosphorylation enrichment (FGFR1 (UniProt P11362)) for the following sequence: AGTILSHAHLD [ASS1_Y291_Y291S]
Result: 0.364

Ask: Lab note: record phosphorylation enrichment of YTHSDYQYGQR [PKP2_Y166_S169G] tested on FGFR1 (UniProt P11362).
Result: 0.531

Ask: Quote FGFR1 (UniProt P11362) phosphorylation enrichment for entry RNNTEYVRDIG [MUSK_Y577_I575T] .
Result: 0.418

Ask: Provide phosphorylation enrichment, recorded with FGFR1 (UniProt P11362), of WAFNLYDINKY [KCNIP3_Y174_D179Y]
Result: 0.553

Ask: Determine reported phosphorylation enrichment for LFCVHYFHRTF [SRD5A2_Y91] ; test system: FGFR1 (UniProt P11362).
Result: 1.04

Ask: Return reported phosphorylation enrichment for target or system FGFR1 (UniProt P11362), item QRDSSYFWEIE [RAF1_Y340_YF] .
Result: 1.04

Ask: Report value: phosphorylation enrichment, system: FGFR1 (UniProt P11362), sequence: GSSEGYLHMVH [NIPBL_Y247_D246G]
Result: 0.388

Ask: Please report the measured phosphorylation enrichment for VGRVGYVSGWG [HP_Y280] tested on FGFR1 (UniProt P11362).
Result: 0.427

Ask: Please look at MDNQEYKDAYT [BRDT_Y331_K336T] and tell me its recorded phosphorylation enrichment on FGFR1 (UniProt P11362).
Result: 0.667

Ask: Provide FGFR1 (UniProt P11362) phosphorylation enrichment reading for KLIETYSSKNF [PLP1_Y50_F51S_YF] .
Result: 0.446

Ask: Please look at FTAVGYHKHFT [NOMO1_Y1137_I1141F] and tell me its recorded phosphorylation enrichment on FGFR1 (UniProt P11362).
Result: 0.449

Ask: Check FGFR1 (UniProt P11362) data and give phosphorylation enrichment for FSDQVYRQHRK [TH_Y230_R233H] .
Result: 0.388

Ask: Report phosphorylation enrichment from FGFR1 (UniProt P11362) testing of ILNANCMAKRL [GLDC_Y839_Y839C]
Result: 0.477

Ask: GET phosphorylation enrichment where system = FGFR1 (UniProt P11362) and item = GKMPQYLESMQ [CYB5R3_Y130_S128P]
Result: 0.517

Ask: System FGFR1 (UniProt P11362). Read-out phosphorylation enrichment. Item LEAFQYIGESQ [MSH2_Y856_E853A] . Report value.
Result: 0.614

Ask: State the measured phosphorylation enrichment (FGFR1 (UniProt P11362)) of LLNPRYNLPLD [TOM1L1_Y109]
Result: 0.645

Ask: Supply phosphorylation enrichment measured with FGFR1 (UniProt P11362) for PRSRSYFSTSI [REPS2_Y462_S463F] .
Result: 0.457

Ask: Return reported phosphorylation enrichment for target or system FGFR1 (UniProt P11362), item CNSFRYGGGGG [NPPA_Y151] .
Result: 0.389

Ask: Specify the recorded phosphorylation enrichment for RNFDTYTAGLS [RHBDD1_Y264_YF] , system: FGFR1 (UniProt P11362).
Result: 0.407

Ask: Fetch value of phosphorylation enrichment on FGFR1 (UniProt P11362) for KLKEKYQKDIA [HMGB1_Y155_E156Q] .
Result: 0.565

Ask: State the measured phosphorylation enrichment (FGFR1 (UniProt P11362)) of TDTAAYEERLR [SPTB_Y474_V478L]
Result: 0.668

Ask: Provide phosphorylation enrichment, recorded with FGFR1 (UniProt P11362), of KNNSIYVVANI [VNN1_Y134]
Result: 0.701

Ask: GET phosphorylation enrichment | system: FGFR1 (UniProt P11362) | item: SHKELYKWFTS [DYNC1H1_Y3051_E3048K]
Result: 0.897

Ask: Fill in: phosphorylation enrichment on FGFR1 (UniProt P11362), entry QQPGPYDRPGA [HNRNPH2_Y210_R206Q]
Result: 0.66

Ask: Please tell me the measured phosphorylation enrichment for ERSMSYCDESR [SMG1_Y143_S144C] ; system: FGFR1 (UniProt P11362).
Result: 0.475

Ask: State phosphorylation enrichment on FGFR1 (UniProt P11362). Entry: TNDRLYLRSLE [MTM1_Y71_Y68D]
Result: 0.438

Ask: Provide phosphorylation enrichment, recorded with FGFR1 (UniProt P11362), of VFGVSYDEFRF [CFTR_Y512_I507V_YF]
Result: 0.452

Ask: // output phosphorylation enrichment; input HGTKVYIDPFT [EPHB4_Y590] ; system FGFR1 (UniProt P11362)
Result: 0.711

Ask: // output phosphorylation enrichment; input SQQTYYPVSNM [ABCD1_Y181_R182P] ; system FGFR1 (UniProt P11362)
Result: 13.5
